- system: T1, Activin A (ligand of the Activin 2B Receptor/SMAD reporter assay) (UniProt P08476 311-426)
- T1 sequence (looked up): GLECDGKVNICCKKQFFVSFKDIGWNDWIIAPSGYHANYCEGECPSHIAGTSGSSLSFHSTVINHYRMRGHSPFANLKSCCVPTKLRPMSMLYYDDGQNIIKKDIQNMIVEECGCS
- measurement-notes: cell-based or functional assay
measured-endpoint: Activin A-ActRIIB SMAD IC50 pM (pM)

{"columns": ["binder", "measured-endpoint", "value-measured"],
 "data": [
  ["anti-Activin A antibody Clone G (IgG) (antibody, V domains shown, IgG format; also called Antibody G) VH: QVQLVQSGAEVKKPGASVKVSCKASGYTFTSYYIHWVRQAPGQGLEWMGAIYAYSGDTNYAQKLQGRVTMTTDTSTSTAYMELRSLRSDDTAVYYCARARDIAAAGLGAFDYWGQGTLVTVSS VL: EIVLTQSPGTLSLSPGERATLSCRASQSVRSSYLAWYQQKPGQAPRLLIYGASSRATGIPDRFSGSGSGTDFTLTISRLEPEDFAVYYCQQYSNYPRTFGGGTKVEIKR", "Activin A-ActRIIB SMAD IC50 pM", 15.8],
  ["anti-Activin A antibody Clone J (IgG) (antibody, V domains shown) VH: EVQLVQSGAEVKKPGSSVKVSCKASGGTFSLYAISWVRQAPGQGLEWMGGIIPYFGTANYAQKFQGRVTITADESTSTAYMELSSLRSEDTAVYYCARGGSGYSTSWGSSLYWGQGTLVTVSS VL: EIVLTQSPGTLSLSPGERATLSCRASQSVSSSYLAWYQQKPGQAPRLLIYGAFSRATGIPDRFSGSGSGTDFTLTISRLEPEDFAVYYCQQSGVFPYTFGGGTKVEIKR", "Activin A-ActRIIB SMAD IC50 pM", 41.7]
]}
